Ref: paper PMC9482650

experimentalSystem: GRID2IP_2, A4D2P6
Sequence (A4D2P6 272-370): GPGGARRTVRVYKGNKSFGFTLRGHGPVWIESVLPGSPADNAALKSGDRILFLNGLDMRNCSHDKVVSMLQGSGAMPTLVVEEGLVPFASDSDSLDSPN
assayText: holdup assay
Set-up: key: below the threshold = too weak to quantify, mostly under pKd 3.1 to 4
conditions: plain residues with an end cap or a label only (N-terminal biotin on a linker: ahx)
propertyLabel: pKd

- binder: "RAVEEEESRF [PSCDBP, O60759]"
  result: "below the threshold"
- binder: "ESLLLGPSNF [SHROOM4, Q9ULL8]"
  result: "below the threshold"
- binder: "SDSSGQEYSL [KCTD3, Q9Y597]"
  result: "below the threshold"
